Catalogue of IC50 values
study-system: human endothelin receptor ETA (Homo sapiens, UniProt P25101)
Construct: expressed in transfected cells; host or cells: CHO cells (membrane fraction)
Sequence (P25101 21-427): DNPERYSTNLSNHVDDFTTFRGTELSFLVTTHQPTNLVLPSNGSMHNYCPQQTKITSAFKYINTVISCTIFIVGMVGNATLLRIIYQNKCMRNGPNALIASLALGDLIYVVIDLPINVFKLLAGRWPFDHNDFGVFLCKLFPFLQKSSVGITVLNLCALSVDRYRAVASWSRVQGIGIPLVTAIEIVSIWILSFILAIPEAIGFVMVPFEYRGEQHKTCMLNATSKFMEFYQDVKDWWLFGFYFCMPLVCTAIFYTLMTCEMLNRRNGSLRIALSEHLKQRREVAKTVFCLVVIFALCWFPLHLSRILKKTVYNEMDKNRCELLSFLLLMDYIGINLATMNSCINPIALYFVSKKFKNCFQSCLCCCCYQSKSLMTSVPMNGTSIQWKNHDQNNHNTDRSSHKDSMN
assay-method-text: Radioiodinated endothelin-1 binding to membrane fraction of CHO cells expressing human endothelin receptor ETA
details: radioactive-iodine-labeled endothelin-1, 25° C., one hour
Method: The membrane fraction of CHO cells on which human endothelin receptor (ETA or ETB) was expressed was diluted to 0.15 mg/ml with an assaying buffer and dispensed to assaying tubes at 100 μl per tube. […] The radioactive iodine in this precipitate was counted, using a gamma ray counter, to determine the amount of radioactive-iodine-labeled endothelin-1 bound to the endothelin receptors. The results of the quantitative determination were shown in the respective IC50 (nm) values in the following Table 2.
*1 amine or outer side, *2 acyl side, *3 side chain or, on linkers, in order; H or OH if unused. Where a SMILES comes first, the peptide text is derived from it. [ ]: non-standard residue; d: D form. The star is where a group is joined. Piperazinyl(4-(2-MeOPh)) = COc1ccccc1N1CCN(*)CC1; Piperazinyl(4-Ph) = c1ccc(N2CCN(*)CC2)cc1; dNle = CCCC[C@@H](N)C(=O)O; CO = O=C([*:1])[*:2]; X1 = C1CCCN(*)CC1; Moc = COC(=O)*
Please respond with the number in nM and leave the unit unwritten.

CCCC[C@@H](NC(=O)[C@@H](Cc1cn(C(=O)OC)c2ccccc12)NC(=O)[C@H](CC(C)C)NC(=O)N1CCCCCC1)C(=O)N[C@H](CC(=O)N1CCN(c2ccccc2OC)CC1)C(=O)O [W. Ex. 5] ({X1-CO}-L[dW](Moc)[dNle][dD](Piperazinyl(4-(2-MeOPh)))-OH) = 7.1

Inquiry: Requested read-out IC50, target or system human endothelin receptor ETA (Homo sapiens, UniProt P25101), entry CCCC[C@@H](NC(=O)[C@@H](Cc1cn(C(=O)OC)c2ccccc12)NC(=O)[C@H](CC(C)C)NC(=O)N1CCCCCC1)C(=O)N[C@@H](CC(=O)N1CCN(c2ccccc2)CC1)C(=O)O [W. Ex. 3] ({X1-CO}-L[dW](Moc)[dNle]D(Piperazinyl(4-Ph))-OH)
Reply text: 45
